Data provenance: paper PMC9352680

# System: T1, PUF4 RNA-binding domain (Saccharomyces cerevisiae, UniProt P25339 537-888)
# T1 sequence: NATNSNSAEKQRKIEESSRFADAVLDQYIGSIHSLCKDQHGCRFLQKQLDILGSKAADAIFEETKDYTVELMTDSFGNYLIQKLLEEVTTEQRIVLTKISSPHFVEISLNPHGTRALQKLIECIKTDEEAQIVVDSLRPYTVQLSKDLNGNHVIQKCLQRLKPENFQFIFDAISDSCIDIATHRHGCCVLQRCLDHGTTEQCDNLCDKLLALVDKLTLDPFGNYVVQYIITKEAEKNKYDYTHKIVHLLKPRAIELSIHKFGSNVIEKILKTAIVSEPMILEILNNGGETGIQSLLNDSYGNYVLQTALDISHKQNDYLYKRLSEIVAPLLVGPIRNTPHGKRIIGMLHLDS
# Procedure Summary: Mg; RNA-MaP; 20 mM Na-HEPES pH 7.4, 30 mM KOAc, 0.75 mM MgCl2, 0.1% Tween-20, 5% glycerol, 0.1 mg/mL BSA, 2 mM DTT; 25 C; 0.0125-409.6 nM protein
# Condition Notes: tags: N-His6-TEV cleaved; C-SNAP kept, Cy3B-labelled; label: tethered on chip by stalled RNA polymerase
Entries and their pKd
On this scale, pKd is minus log10 of a concentration expressed in M (mol/L).

Binder | pKd
Ic_S2_P3E.1_K3.1_C3.1_H3.1_A3.1_[T5G]_[A6C]_F3.1_[T7A]_T3.1 (ssRNA) RNA: UUUGAUUAAUAUGAUAUCGUUCUUUCUUGUAGCAAUUCUUUCUCGAUAUCAUAUUAAUCUUU | 6.30
ACAAACUUUAUAUAUUAUAACAAAC (ssRNA) [Id_ii_S3_P4E.3_K4.2_C4.2_[C-2T]_H4.2_A4.1_F4.1_T4.2_[G10T]_[T11A]] | 7.74
Ic_S2_P4E.1_K4.1_C4.1_H4.1_A4.1_[T5G]_[A6C]_[T7C]_F4.1_T4.1 (ssRNA) RNA: UUUGAUUAAUAUGAUAUCGUUCUUUCUUGUAGCCUAUUCUUUCUCGAUAUCAUAUUAAUCUUU | 8.23
Id_ii_S2_P3E.2_K3.1_C3.2_H3.1_A3.1_F3.1_T3.2_[A10G] (ssRNA) RNA: UUUGAUUAAUAUGAUAUCGUUCUUUCUCUUGUAUAUAUGUUCUUUCUCGAUAUCAUAUUAAUCUUU | 8.70

Input line: State the recorded pKd for this entry: Ic_S2_P4E.1_K4.1_C4.1_H4.1_A4.1_[T5C]_[A6T]_[T7A]_F4.1_[T8G]_[A9T]_T4.1 (ssRNA) RNA: UUUGAUUAAUAUGAUAUCGUUCUUUCUUGUACUAGUUUCUUUCUCGAUAUCAUAUUAAUCUUU
Output line: 6.27

Input line: Same thing, different binder: Ic_S4_P5E.1_K5.1_C5.1_H5.1_A5.1_[T5A]_[A7G]_F5.1_[T8C]_[T9A]_[A10T]_T5.1 (ssRNA) RNA: UUUGACAACUGAUCGUUCUUUCUUGUAAUGCAUUUCUUUCUCGAUCAGUUGUCUUU
Output line: 6.07

Input line: Next entry: UCUCUUUUUAUAUAUUAAGUCUCUU (ssRNA) [Id_ii_S1_P4E.3_K4.2_C4.2_[C-2T]_H4.2_A4.1_F4.1_T4.2_[G10A]_[T11G]]
Output line: 6.31
